The measurements presented in this section are drawn from paper PMC5540273.

# System: MYO3B;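 further: KINOMEscan kinase panel screen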
# recordedConditions: concentration: 1 μM, replicates: in singlicate; n = 1
%Inh values, listed per item
measurementKind: %Inh (%)

In [3]: df
Out[3]:
                                    molecule  experimentalsystem  measurementkind  observedvalue
 0      Nc1nc(-c2cccnc2)c(-c2ccnc3ccccc23)s1               MYO3B             %Inh              0
 1  Cc1ccc(O)cc1Nc1cc(C(F)(F)F)nc2ccc(-c3ccncc3)cc12               MYO3B             %Inh              0
 2  C[C@H]1CC[C@@H](C(=O)Nc2ccccc2)CN1c1cc(-c2ccc3c(N)n[nH]c3c2)nc(N)n1               MYO3B             %Inh              0
 3  Cn1cc(-c2ccc3c(c2)CCN3C(=O)Cc2cccc(C(F)(F)F)c2)c2c(N)ncnc21               MYO3B             %Inh              7
 4  Cn1ccc2ncnc(Oc3ccc(NC(=O)Nc4cccnc4)c(Cl)c3)c21               MYO3B             %Inh              1
 5  FC(F)(F)c1ccc(-c2nn3ncccc3c2-c2ccnc(Nc3cccc(C(F)(F)F)c3)n2)cc1               MYO3B             %Inh              0
 6  Nc1nccc2scc(-c3ccc4c(c3)CCN4C(=O)Cc3cc(F)ccc3F)c12               MYO3B             %Inh              0
 7  C[C@@H]1CCN(C(=O)CO)C[C@@H]1N(C)c1ncnc2[nH]ccc12               MYO3B             %Inh              0
 8  CCCc1ccc(S(=O)(=O)NC2CCN(c3ccnc(Nc4ccc(OC)cc4)n3)C2)cc1 (stereo not drawn)               MYO3B             %Inh              0
 9      COc1ccc(-c2nc3n(c2-c2ccncc2)CCC3)cc1               MYO3B             %Inh              0
10       CC(C)(C)c1ccc(-n2cnc3c(N)ncnc32)cc1               MYO3B             %Inh              8
11                CCn1c(-c2ccncc2)nc2cnccc21               MYO3B             %Inh              0
12              Nc1n[nH]c2nnc(-c3ccccc3)cc12               MYO3B             %Inh              0
13  CCc1nc(-c2cccc(C)c2)c(-c2ccnc(NC(=O)c3ccccc3)c2)s1               MYO3B             %Inh              0
14  Nc1nc(-c2ccc3c(N)n[nH]c3c2)cc(N2CCCCC2)n1               MYO3B             %Inh              0
15  O=C(Nc1n[nH]c2nc(-c3ccco3)c(Br)cc12)c1ccc(CN2CCCC2)cc1.O=C(O)[C@H](O)[C@@H](O)C(=O)O               MYO3B             %Inh              8
16    Clc1cccc(-c2nc(Nc3ccncc3)c3ccccc3n2)c1               MYO3B             %Inh             17
17  O=C(NCCCN1CCCC1=O)c1cnc(NCc2cc(Cl)ccc2Cl)nc1NC1CCNCC1               MYO3B             %Inh              0
